test_method_notes: Biodistribution in ddY mice
Format: in vivo
condition_notes: i.v. co-injection, 4 h
Marks after values point to notes of the source that are not given here.
observed_property: Radioactivity in Kidney

Study these solved cases before continuing.
COCCOc1ccc2c(c1)ncn2-c1ccc2c([77Br])ccc(N3CCC(N)CC3)c2n1 [[^77Br]2]
4.33 (0.75) %injected dose/gram tissue
COCCOc1ccc2c(c1)ncn2-c1ccc2c([125I])ccc(N3CCC(N)CC3)c2n1 [[^125I]4, reference compound]
4.28 (0.68) %injected dose/gram tissue
COCCOc1ccc2c(c1)ncn2-c1ccc2cccc(N3CCC(NC(=O)c4cccc([125I])c4)CC3)c2n1 [[^125I]5, reference compound]
0.36 (0.10)^* %injected dose/gram tissue

Now, please, on to the next molecule.
Consider the molecule shown here: COCCOc1ccc2c(c1)ncn2-c1ccc2cccc(N3CCC(NC(=O)c4cccc([77Br])c4)CC3)c2n1 [[^77Br]3] What is its recorded Radioactivity in Kidney?
0.65 (0.15) %injected dose/gram tissue

###

test_method_notes: Biodistribution in ddY mice
Format: in vivo
condition_notes: i.v. co-injection, 10 min
observed_property: Radioactivity in Kidney

Check out these entries, answers already filled in.
COCCOc1ccc2c(c1)ncn2-c1ccc2c([125I])ccc(N3CCC(N)CC3)c2n1 [[^125I]4, reference compound]
14.44 (1.31) %injected dose/gram tissue
COCCOc1ccc2c(c1)ncn2-c1ccc2cccc(N3CCC(NC(=O)c4cccc([77Br])c4)CC3)c2n1 [[^77Br]3]
5.21 (0.53) %injected dose/gram tissue
COCCOc1ccc2c(c1)ncn2-c1ccc2c([77Br])ccc(N3CCC(N)CC3)c2n1 [[^77Br]2]
15.61 (1.32) %injected dose/gram tissue

# ---- query compound ----
Entry COCCOc1ccc2c(c1)ncn2-c1ccc2cccc(N3CCC(NC(=O)c4cccc([125I])c4)CC3)c2n1 [[^125I]5, reference compound] has what Radioactivity in Kidney?
5.23 (0.65) %injected dose/gram tissue

###

test_method_notes: Biodistribution in ddY mice
Type: in vivo
condition_notes: i.v. co-injection, 4 h
Marks after values point to notes of the source that are not given here.
The following compounds are shown together with reported Radioactivity in Heart values.

Here are 2 compounds together with their reported answers.
COCCOc1ccc2c(c1)ncn2-c1ccc2cccc(N3CCC(NC(=O)c4cccc([77Br])c4)CC3)c2n1 [[^77Br]3]
0.65 (0.05) %injected dose/gram tissue
COCCOc1ccc2c(c1)ncn2-c1ccc2c([125I])ccc(N3CCC(N)CC3)c2n1 [[^125I]4, reference compound]
0.31 (0.05)^* %injected dose/gram tissue

Now for the compound whose Radioactivity in Heart we want.
Reported Radioactivity in Heart for COCCOc1ccc2c(c1)ncn2-c1ccc2c([77Br])ccc(N3CCC(N)CC3)c2n1 [[^77Br]2] : what is it?
0.58 (0.13) %injected dose/gram tissue

###

test_method_notes: Biodistribution in ddY mice
Assay type: in vivo
condition_notes: i.v. co-injection, 10 min
Marks after values point to notes of the source that are not given here.
observed_property: Radioactivity in Large intestine

Worked cases, answers included:
COCCOc1ccc2c(c1)ncn2-c1ccc2cccc(N3CCC(NC(=O)c4cccc([125I])c4)CC3)c2n1 [[^125I]5, reference compound]
0.75 (0.06)^* %injected dose/gram tissue
COCCOc1ccc2c(c1)ncn2-c1ccc2c([125I])ccc(N3CCC(N)CC3)c2n1 [[^125I]4, reference compound]
0.80 (0.07)^* %injected dose/gram tissue

What does the data say about its Radioactivity in Large intestine? Entry: COCCOc1ccc2c(c1)ncn2-c1ccc2cccc(N3CCC(NC(=O)c4cccc([77Br])c4)CC3)c2n1 [[^77Br]3]
0.88 (0.08) %injected dose/gram tissue

Give its Radioactivity in Large intestine value. Item: COCCOc1ccc2c(c1)ncn2-c1ccc2c([77Br])ccc(N3CCC(N)CC3)c2n1 [[^77Br]2]
0.99 (0.10) %injected dose/gram tissue
